# TARGET OR TEST SYSTEM: PARP2 (Homo sapiens, UniProt Q9UGN5)
# Construct: host or cells: HEK293
# Sequence (Q9UGN5 whole entry): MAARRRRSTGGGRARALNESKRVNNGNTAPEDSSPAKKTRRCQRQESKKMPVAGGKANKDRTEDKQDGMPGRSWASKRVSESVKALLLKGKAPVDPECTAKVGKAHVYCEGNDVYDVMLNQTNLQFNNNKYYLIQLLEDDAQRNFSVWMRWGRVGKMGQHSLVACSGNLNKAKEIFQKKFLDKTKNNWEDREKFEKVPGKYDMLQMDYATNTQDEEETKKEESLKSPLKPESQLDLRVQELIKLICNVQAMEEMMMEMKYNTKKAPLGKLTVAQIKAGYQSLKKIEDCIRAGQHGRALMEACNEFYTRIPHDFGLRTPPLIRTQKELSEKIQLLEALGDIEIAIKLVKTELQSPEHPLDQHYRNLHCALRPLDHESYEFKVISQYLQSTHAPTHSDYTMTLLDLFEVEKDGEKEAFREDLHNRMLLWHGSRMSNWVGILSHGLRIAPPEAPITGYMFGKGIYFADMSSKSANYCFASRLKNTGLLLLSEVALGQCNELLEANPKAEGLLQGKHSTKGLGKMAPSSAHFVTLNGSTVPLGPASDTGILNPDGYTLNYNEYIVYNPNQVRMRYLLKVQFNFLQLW
# EXPERIMENTAL PROTOCOL: NanoBRET cellular target occupancy assay, PARP2
# Type: cell-based
# CONDITIONS: HEK293 cells transiently transfected with PARP2-NanoLuc fusion; tracer 2 nM; 2 hours at 37° C.; Kd by Cheng-Prussoff
pKd: −log10 of the molar value.
Measured pKd accompanies every entry in the list below.

Known results for compounds:
{"COMPOUND": "CNC(=O)c1ccc(N2CCC(N3CCC(c4cc5ncc(Cl)cc5c(=O)[nH]4)C3)CC2)c(F)n1 (single isomer, unassigned) [Compound 344b]", "RESULT": "< 5.00"}
{"COMPOUND": "CNC(=O)c1ccc(N2CCC(N3CCC(c4nc5cccc(C(F)(F)F)c5c(=O)[nH]4)C3)CC2)cn1 (single isomer, unassigned) [Compound 86b]", "RESULT": "7.00 to 8.00"}
{"COMPOUND": "CNC(=O)c1ccc(N2CCC(N3CC4(c5nc6cccc(F)c6c(=O)[nH]5)CC3C4)CC2)c(F)n1 [Compound 228]", "RESULT": "< 5.00"}

Asked: Lookup: pKd / PARP2 (Homo sapiens, UniProt Q9UGN5) / N#Cc1ccc(N2CCC(N3CCC(c4cc5cccc(F)c5c(=O)[nH]4)C3)CC2)cc1 (single isomer, unassigned) [Compound 314b]
Given back: 6.00 to 7.00

Asked: Lookup: pKd / PARP2 (Homo sapiens, UniProt Q9UGN5) / CNC(=O)c1ccc(N2CCC(N3CCC(c4cc5ccc(F)cc5c(=O)[nH]4)C3)CC2)c(C)n1 (single isomer, unassigned) [Compound 196a]
Given back: 6.00 to 7.00

Asked: Lookup: pKd / PARP2 (Homo sapiens, UniProt Q9UGN5) / CNC(=O)c1ccc(N2CCC(N3CC4(c5nc6ccccc6c(=O)[nH]5)CC3C4)CC2)cn1 [Compound 192]
Given back: 5.00 to 6.00

* * *

Measured pIC50 accompanies every entry in the list below.
# TARGET OR TEST SYSTEM: full length N-terminally FLAG-tagged PARP1 (Homo sapiens)
# EXPERIMENTAL PROTOCOL: PARP1 biochemical DELFIA assay (auto-PARylation)
# Set-up: recombinant full length human N-terminally FLAG-tagged PARP1
# CONDITIONS: binned IC50, PARP1 biochemical DELFIA assay
pIC50: −log10 of the molar value.

Known results for molecules:
{"MOLECULE": "CNC(=O)c1ccc(N2CCC(N3CCC(c4ccc(CC5CC5)c(=O)[nH]4)C3)CC2)cn1 (single isomer, unassigned) [Compound 213b]", "TARGET OR TEST SYSTEM": "full length N-terminally FLAG-tagged PARP1 (Homo sapiens)", "pIC50": "> 8.00"}
{"MOLECULE": "CNC(=O)c1ccc(N2CCC(C(=O)N3CCC(c4ncc(C(F)(F)F)c(=O)[nH]4)CC3)CC2)cn1", "TARGET OR TEST SYSTEM": "full length N-terminally FLAG-tagged PARP1 (Homo sapiens)", "pIC50": "5.00 to 6.00"}

Asked: Could you tell me which pIC50 is on file for CNC(=O)c1ccc(N2CCC(N3CCCC(c4nc5c(c(=O)[nH]4)CCCC5)C3)CC2)cn1 (single isomer, unassigned) [Compound 146a] ?
Given back: 6.00 to 7.00

Asked: Could you tell me which pIC50 is on file for CNC(=O)c1ccc(N2CCC(N3CCC(c4ccc(COC)c(=O)[nH]4)C3)CC2)cn1 (single isomer, unassigned) [Compound 207a] ?
Given back: > 8.00

Asked: Could you tell me which pIC50 is on file for CNC(=O)c1ccc(N2CCC(N3CCC(c4cc5ccc(F)cc5c(=O)[nH]4)C3)CC2)cn1 (racemic) [Compound 154rac] ?
Given back: > 8.00

Asked: Could you tell me which pIC50 is on file for CNC(=O)c1ccc(N2CCC(N3CCC(c4nc5c(c(C(F)(F)F)cn5C)c(=O)[nH]4)C3)CC2)cn1 (single isomer, unassigned) [Compound 170b] ?
Given back: > 8.00

* * *

# TARGET OR TEST SYSTEM: full length N-terminally FLAG-tagged PARP1 (Homo sapiens, UniProt P09874)
# Sequence (P09874 whole entry): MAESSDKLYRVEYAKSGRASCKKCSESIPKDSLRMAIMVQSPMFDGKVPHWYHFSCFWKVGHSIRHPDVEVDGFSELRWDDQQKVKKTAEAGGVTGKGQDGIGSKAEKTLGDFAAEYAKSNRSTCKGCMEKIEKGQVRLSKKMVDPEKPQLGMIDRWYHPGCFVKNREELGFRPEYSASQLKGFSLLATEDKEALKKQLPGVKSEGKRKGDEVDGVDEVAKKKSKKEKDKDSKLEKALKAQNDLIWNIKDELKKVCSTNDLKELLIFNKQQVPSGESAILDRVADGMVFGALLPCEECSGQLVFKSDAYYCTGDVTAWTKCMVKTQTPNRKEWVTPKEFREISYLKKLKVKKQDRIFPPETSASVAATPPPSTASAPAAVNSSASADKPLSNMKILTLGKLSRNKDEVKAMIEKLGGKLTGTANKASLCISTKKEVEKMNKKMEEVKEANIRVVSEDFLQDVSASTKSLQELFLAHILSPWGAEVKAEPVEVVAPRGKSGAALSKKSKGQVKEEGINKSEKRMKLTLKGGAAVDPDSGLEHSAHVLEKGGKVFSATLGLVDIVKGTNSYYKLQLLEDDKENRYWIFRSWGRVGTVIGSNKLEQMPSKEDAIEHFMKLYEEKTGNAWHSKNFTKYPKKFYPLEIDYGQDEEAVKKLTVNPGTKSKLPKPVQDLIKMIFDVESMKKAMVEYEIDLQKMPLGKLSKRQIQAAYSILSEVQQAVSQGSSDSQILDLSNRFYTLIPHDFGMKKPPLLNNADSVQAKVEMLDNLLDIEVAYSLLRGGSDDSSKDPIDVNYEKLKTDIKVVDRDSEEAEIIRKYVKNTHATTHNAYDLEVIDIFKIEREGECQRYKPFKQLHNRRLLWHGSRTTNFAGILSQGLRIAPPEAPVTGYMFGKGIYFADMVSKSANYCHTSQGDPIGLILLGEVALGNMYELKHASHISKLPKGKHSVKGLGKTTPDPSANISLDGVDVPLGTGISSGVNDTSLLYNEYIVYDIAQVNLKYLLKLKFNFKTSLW
# EXPERIMENTAL PROTOCOL: PARP1 biochemical DELFIA assay (auto-PARylation)
# Set-up: recombinant full length human N-terminally FLAG-tagged PARP1
# CONDITIONS: binned IC50, biochemical auto-PARylation assay
MEASURED PROPERTY: IC50

Known results for molecules:
{"MOLECULE": "CCc1ccc(C2CCN(C3CCN(c4cnc(C(=O)NC)nc4C(F)(F)F)CC3)C2)[nH]c1=O (racemic)", "TARGET OR TEST SYSTEM": "full length N-terminally FLAG-tagged PARP1 (Homo sapiens, UniProt P09874)", "IC50": "10 to 100 nM"}
{"MOLECULE": "CNC(=O)c1ccc(N2CCC(N3CCC(c4cc5ccc(F)cc5c(=O)[nH]4)C3)CC2)cc1F (single isomer, unassigned) [Compound 270a]", "TARGET OR TEST SYSTEM": "full length N-terminally FLAG-tagged PARP1 (Homo sapiens, UniProt P09874)", "IC50": "10 to 100 nM"}

Asked: Could you tell me which IC50 is on file for O=C(NCC(F)F)c1ccc(N2CCC(N3CCC(c4cc5cccc(F)c5c(=O)[nH]4)C3)CC2)c(F)n1 (single isomer, unassigned) [Compound 390a] ?
Given back: < 10 nM

Asked: Could you tell me which IC50 is on file for CCc1ccc(C2CCN(C3CCN(c4ccc(C(=O)NCC(F)F)nc4F)CC3)C2)[nH]c1=O (single isomer, unassigned) [Compound 398b] ?
Given back: < 10 nM

Asked: Could you tell me which IC50 is on file for O=C(NC1CC1)c1ccc(N2CCC(N3CCC(c4cc5ncc(F)cc5c(=O)[nH]4)C3)CC2)cn1 (single isomer, unassigned) [Compound 372b] ?
Given back: < 10 nM

Asked: Could you tell me which IC50 is on file for `CNC(=O)c1ccc(N2CCC(N3CC4(c5nc6ccccc6c(=O)[nH]5)CC3C4)CC2)c(F)n1` ?
Given back: < 10 nM

Asked: Could you tell me which IC50 is on file for CNC(=O)c1ccc(N2CCC(N3CCC(c4cc5ncc(F)cc5c(=O)[nH]4)C3)CC2)c(F)n1 (single isomer, unassigned) [Compound 324b] ?
Given back: < 10 nM

Asked: Could you tell me which IC50 is on file for CC(=O)Nc1ccc(N2CCC(N3CCC(c4nc5ccccc5c(=O)[nH]4)C3)CC2)cn1 (single isomer, unassigned) [Compound 262b] ?
Given back: 100 to 1000 nM

* * *

Measured pKd accompanies every entry in the list below.
# TARGET OR TEST SYSTEM: full length N-terminally FLAG-tagged PARP1 (Homo sapiens)
# EXPERIMENTAL PROTOCOL: PARP1 probe displacement HTRF assay
# CONDITIONS: read-out: PARP1 HTRF; binned Kd, probe displacement HTRF
pKd: −log10 of the molar value.

Asked: Could you tell me which pKd is on file for CCc1ccc(C2CCN(C3CCN(c4ccc(C#N)cc4)CC3)C2)[nH]c1=O (single isomer, unassigned) [Compound 317a] ?
Given back: 6.00 to 7.00

Asked: Could you tell me which pKd is on file for CS(=O)(=O)Nc1ccc(N2CCC(N3CCC(c4cc5ccccc5c(=O)[nH]4)C3)CC2)cn1 (single isomer, unassigned) [Compound 252b] ?
Given back: 7.00 to 8.00

Asked: Could you tell me which pKd is on file for CCc1ccc(C2(F)CCN(C3CCN(c4ccc(C(=O)NC)nc4F)CC3)C2)[nH]c1=O (racemic) [Compound 415rac] ?
Given back: > 8.00

Asked: Could you tell me which pKd is on file for CNC(=O)c1ccc(N2CCC(N3CCC(c4cc5c(F)cncc5c(=O)[nH]4)C3)CC2)cn1 (single isomer, unassigned) [Compound 331b] ?
Given back: 7.00 to 8.00

* * *

Measured pKd accompanies every entry in the list below.
# TARGET OR TEST SYSTEM: N-terminally FLAG-tagged PARP2 (amino acids 1-583) (Homo sapiens, UniProt Q9UGN5)
# Construct: N-terminally FLAG-tagged PARP2 (amino acids 1-583)
# Sequence (Q9UGN5 whole entry, the tested form may be a part): as the sequence (Q9UGN5 whole entry) above
# EXPERIMENTAL PROTOCOL: PARP2 probe displacement HTRF assay
# Type: binding
# CONDITIONS: binned Kd, probe displacement HTRF
pKd: −log10 of the molar value.

{"MOLECULE": "CC(=O)Nc1ccc(N2CCC(N3CCC(c4nc5ccccc5c(=O)[nH]4)C3)CC2)cn1 (single isomer, unassigned) [Compound 220b]", "pKd": "5.00 to 6.00"}
{"MOLECULE": "CNC(=O)c1ccc(N2CCC(N3CCC(c4ccc(CC5CC5)c(=O)[nH]4)C3)CC2)c(F)n1 (single isomer, unassigned) [Compound 313a]", "pKd": "< 5.00"}
{"MOLECULE": "CNC(=O)c1ccc(N2CCC(N3CCC(c4[nH]c(=O)c5cc(F)ccc5c4F)C3)CC2)cn1 (single isomer, unassigned) [Compound 401a]", "pKd": "7.00 to 8.00"}
{"MOLECULE": "CNC(=O)c1ccc(N2CCC(N3CC4(c5nc6c(c(=O)[nH]5)CCCN6)CC3C4)CC2)cn1 [Compound 312]", "pKd": "6.00 to 7.00"}
{"MOLECULE": "CNC(=O)c1ccc(N2CCC(N3CCC(c4cc5cccc(O)c5c(=O)[nH]4)C3)CC2)cn1 (racemic) [Compound 271rac]", "pKd": "6.00 to 7.00"}
{"MOLECULE": "CCc1ccc(C2CCN(C3CCN(c4ccc(C#N)cc4Cl)CC3)C2)[nH]c1=O (single isomer, unassigned) [Compound 377b]", "pKd": "5.00 to 6.00"}
{"MOLECULE": "CCc1ccc(C2CCN(C3CCN(c4ccc(C(=O)NC5CC5)nc4)CC3)C2)[nH]c1=O (single isomer, unassigned) [Compound 338a]", "pKd": "6.00 to 7.00"}
{"MOLECULE": "O=C(NC1CC1)c1ccc(N2CCC(N3CCC(c4cc5cccc(F)c5c(=O)[nH]4)C3)CC2)c(F)n1 (single isomer, unassigned) [Compound 349a]", "pKd": "< 5.00"}
{"MOLECULE": "CNC(=O)c1ccc(N2CCC(N3CCC(c4cc5ccc(F)cc5c(=O)[nH]4)C3)CC2)c(C#N)n1 (single isomer, unassigned) [Compound 396a]", "pKd": "6.00 to 7.00"}
{"MOLECULE": "N#Cc1ccc(N2CCC(N3CC4(c5nc6ccc(F)cc6c(=O)[nH]5)CC3C4)CC2)c(F)c1 [Compound 380]", "pKd": "< 5.00"}

Asked: Could you tell me which pKd is on file for CNC(=O)c1ccc(N2CCC(N3CCC(c4cc5ncc(Cl)cc5c(=O)[nH]4)C3)CC2)c(F)n1 (single isomer, unassigned) [Compound 344b] ?
Given back: 5.00 to 6.00

Asked: Could you tell me which pKd is on file for CCNC(=O)c1ccc(N2CCC(N3CCC(c4ccc(CC)c(=O)[nH]4)C3)CC2)c(F)n1 (racemic) [Compound 264rac] ?
Given back: 6.00 to 7.00

Asked: Could you tell me which pKd is on file for CNC(=O)c1ccc(N2CCC(N3CCC(c4cc5c(c(=O)[nH]4)COCC5)C3)CC2)cn1 (racemic) [Compound 405rac] ?
Given back: 6.00 to 7.00
